The reported measurements were obtained from PubChem BioAssay.

Assay: RPMI8226 myeloma cell viability, profiling panel, resazurin fluorescence, basal, 24 h, PK04 Diversity Set (AID 1180);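 further: RPMI8826 multiple myeloma cell line at 5000 cells per well; test concentration not given here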
Conditions: higher = more signal
Each item that follows carries a reported z-score.
Response field accepts a number only; no unit should be typed.

These solved cases illustrate the format of a correct answer.
[[record]]
compound = "CC1(C)[C@@H]2CC(C(O)C3C=CC4C(=O)N(c5ccccc5)C(=O)C4N3Nc3ccccc3)=C[C@H]1C2 (stereo partly specified)"
recorded_value = -1.08

[[record]]
compound = "COc1ccc(C#Cc2ccc3c(c2)[C@]2(C(=O)N3)[C@H](c3ccccc3OCCO)N3[C@H](c4ccccc4)[C@H](c4ccccc4)OC(=O)[C@H]3[C@@H]2C(=O)O)cc1"
recorded_value = -6.75

[[record]]
compound = "O=C1OCCC/C=C\\[C@H]2OC34C=CCN(Cn5nnc6ccccc65)C(=O)[C@H]3N(CCCCCCO)C(=O)[C@@H]4C12 (stereo partly specified)"
recorded_value = 0.598

[[record]]
compound = "O=C1OCCC/C=C\\[C@H]2OC34C=CCN(c5ccc6ccccc6c5)C(=O)[C@H]3N(CCCCCCO)C(=O)[C@@H]4C12 (stereo partly specified)"
recorded_value = 0.152

[[record]]
compound = "COc1ccc([Si](C)(C)[C@H]2[C@H](CC(=O)N3CCC[C@H]3CO)O[C@@]3(C(=O)N(Cc4cccc(N5C(=O)c6cccc7cccc5c67)c4)c4ccccc43)[C@@H]2C)cc1"
recorded_value = -1.28


Please turn your attention to the following entry.
GET /values?readout=z-score&item= O=C1OCC=C[C@H]2OC34C=CCN(c5ccc6ccccc6c5)C(=O)[C@H]3N(CCCCCCO)C(=O)[C@@H]4[C@@H]12 (stereo partly specified)
0.683

----------
Assay: inhibitors of hydroxyurea-induced Chk1 phosphorylation, primary screen, imaging, HeLa, phospho-Chk1 nuclear intensity (AID 1187); further: test concentration not given here
Conditions: hydroxyurea-induced phospho-Chk1 immunofluorescence imaging, higher = more signal
MEASURED PROPERTY: z-score
Just the number, please, no unit attached.

[[record]]
compound = "C=C/C=C/[C@H]1C(=C)CN([C@@H](Cc2ccccc2)C(=O)OC)[C@@H]1[C@H](O)Cc1ccccc1"
measured_property = "z-score"
recorded_value = -0.368

[[record]]
compound = "CN1C(=O)C2C=CC(C(O)Cc3ccccc3)N(Nc3ccccc3)C2C1=O (centres undefined)"
measured_property = "z-score"
recorded_value = -0.889

[[record]]
compound = "COC(=O)[C@@]1(Cc2ccc(OC)cc2)[C@H]2c3cc(C(=O)N4CCCC4)n(Cc4ccc(OC)c(OC)c4)c3C[C@H]2CN1C(=O)c1ccccc1"
measured_property = "z-score"
recorded_value = 0.699

[[record]]
compound = "CN(C)CCCNC(=O)[C@@]1(C)c2ccccc2C(=O)N(Cc2cc(F)cc(C(F)(F)F)c2)[C@H]1c1ccc(CO)cc1"
measured_property = "z-score"
recorded_value = 0.121

[[record]]
compound = "CCCCN1CC=CC23O[C@@H]4C=CCOC(=O)[C@@H]4[C@H]2C(=O)N(CCCCCO)[C@@H]3C1=O (some centres undefined)"
measured_property = "z-score"
recorded_value = -0.504

[[record]]
compound = "CN(C)CCCCCCNC(=O)[C@@H]1C[C@@H]2C(=O)N[C@@H](CCCCN)C(=O)N2[C@@H]1c1cccc(OCCO)c1"
measured_property = "z-score"
recorded_value = -0.785

[[record]]
compound = "O=C1c2ccccc2[C@@]2(Cc3ccccc3N(CCN3CCOCC3)C2=O)[C@H](c2ccc(CO)cc2)N1Cc1ccccc1"
measured_property = "z-score"
recorded_value = -0.0278

[[record]]
compound = "COCCOC(=O)N1C(=O)[C@@]2(c3cc(C#Cc4ccc(OC)cc4)ccc31)[C@H](c1ccc(O)cc1)N1[C@H](c3ccccc3)[C@H](c3ccccc3)OC(=O)[C@H]1[C@@H]2C(=O)NC[C@H](O)c1ccccc1"
measured_property = "z-score"
recorded_value = 0.249

[[record]]
compound = "COCCOC(=O)N1C(=O)[C@@]2(c3cc(C#Cc4ccc(OC)cc4)ccc31)[C@H](c1ccccc1OCCO)N1[C@H](c3ccccc3)[C@H](c3ccccc3)OC(=O)[C@H]1[C@@H]2C(=O)N1CCN(c2ncccn2)CC1"
measured_property = "z-score"
recorded_value = 0.273

[[record]]
compound = "COC(=O)[C@@]1(Cc2ccc(OC)cc2)[C@H]2c3cc(C(=O)N(C)C)n(CCN4CNCC4=O)c3C[C@H]2CN1C(=O)c1ccccc1"
measured_property = "z-score"
recorded_value = -0.397


Quick check: z-score of COC(=O)[C@@]1(Cc2ccc(OC)cc2)[C@H]2c3cc(C(=O)N4CCCC4)n(Cc4ccsc4Br)c3C[C@H]2CN1C(=O)c1ccccc1 ?
-1.13

Continue with COC(=O)[C@@]1(Cc2ccc(F)cc2)[C@H]2c3cc(C(=O)N4CCCC4)n(Cc4cc(C)n(C)n4)c3C[C@H]2CN1C(=O)c1ccccc1
0.53

Repeat with C#CCNC(=O)[C@H](Cc1ccccc1)NC(=O)CCC(=O)O
-0.815

What do you have for C=CCC(OC(C)=O)[C@@H]1[C@@H](N(Cc2ccc(-c3cccc(C(F)(F)F)c3)o2)C(=O)Cc2ccc(F)cc2)c2cc(OCCCO)ccc2N1C(=O)Cc1ccc(OC)cc1 (some centres undefined) ?
0.633

----------
Molecular target: Dickkopf-related protein 1 (Homo sapiens) (UniProt O94907)
Sequence (O94907 whole entry, looked up): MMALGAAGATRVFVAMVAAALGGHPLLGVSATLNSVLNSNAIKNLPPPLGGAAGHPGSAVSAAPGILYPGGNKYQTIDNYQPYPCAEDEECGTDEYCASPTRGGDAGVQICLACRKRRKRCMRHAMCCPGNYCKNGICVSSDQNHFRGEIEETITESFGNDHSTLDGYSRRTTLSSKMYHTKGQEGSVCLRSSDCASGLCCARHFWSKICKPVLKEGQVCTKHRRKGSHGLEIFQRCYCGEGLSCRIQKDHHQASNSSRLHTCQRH
Experiment: DKK1 binders on small-molecule microarrays, primary screen, biochemical, small-molecule microarray, 635 nm fluorescence scan (AID 1106);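 further: score merges emission near 667 nm with signal to noise over three replicate slides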
Conditions: DKK1 binding, higher = more signal
MEASURED PROPERTY: composite z-score
Just the number, please, no unit after it.

Consider the following illustrative entries.
[[record]]
molecule = "C#CCNC(=O)[C@H](Cc1ccccc1)NC(=O)CCC(=O)O"
measured_property = "composite z-score"
recorded_value = -0.447

[[record]]
molecule = "C=CCOC(=O)[C@@H]1[C@H]2C(=O)O[C@H](c3ccccc3)[C@H](c3ccccc3)N2[C@H](c2ccc(OCCOC(=O)[C@@H]3C[C@@H]4C(=O)N[C@@H](CCCCN(C)C)C(=O)N4[C@@H]3c3ccc(O)cc3)cc2)[C@@]12C(=O)Nc1ccc(I)cc12"
measured_property = "composite z-score"
recorded_value = 1.11

[[record]]
molecule = "O=C1NC(=O)C2C1C=CC(C(O)C(c1ccccc1)c1ccccc1)N2Nc1ccc(Cl)cc1Cl (configuration not stated)"
measured_property = "composite z-score"
recorded_value = -0.737

[[record]]
molecule = "CCCCCN1CC=CC23O[C@@H]4/C=C\\CCCOC(=O)C4[C@H]2C(=O)N(C(CO)C(C)C)[C@@H]3C1=O (some centres not stated)"
measured_property = "composite z-score"
recorded_value = -0.148


Quick one: composite z-score of O=C1C2C=CC(C(O)C(c3ccccc3)c3ccccc3)N(n3cnnc3)C2C(=O)N1Cc1ccccc1 (configuration not stated) ?
1.24

Please give the result for O=C1NCC(=O)N2[C@@H]1C[C@@H](C(=O)O)[C@H]2c1cccc(OCCO)c1 too.
2.56

Proceed to C=CCN1C(=O)[C@]2(O[C@H](CCO)[C@@H]([Si](C)(C)c3ccc(OC)cc3)[C@@H]2C)c2cc(N3CCCCC3=O)ccc21
0.147

----------
Tested on: Sonic hedgehog protein (Shh)
Experiment: small-molecule binders of Shh protein, primary screen, biochemical, small-molecule microarray, 635/667 nm fluorescence (AID 1151);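 further: Shh protein binding to compounds spotted on small-molecule microarray slides; score combines spot fluorescence intensity with signal-to-noise across triplicate slides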
Details: small-molecule microarray binding, 635 nm fluorescence; higher = more signal
MEASURED PROPERTY: composite z-score
Answer with the value's number alone.

[[record]]
compound = "COCCOC(=O)N1C(=O)[C@@]2(c3cc(C#Cc4ccc(OC)cc4)ccc31)[C@H](C(=O)N1CCCCCCC1)[C@H]1C(=O)O[C@H](c3ccccc3)[C@H](c3ccccc3)N1[C@@H]2c1ccc(OCCO)cc1"
recorded_value = 2.15

[[record]]
compound = "CCCCCN1CC=CC23O[C@@H]4/C=C\\CCCOC(=O)C4[C@H]2C(=O)N(C(CO)C(C)C)[C@@H]3C1=O (stereo partly drawn)"
recorded_value = 0.976


Enter reported composite z-score observed with Sonic hedgehog protein (Shh) for COc1ccc(C#Cc2ccc3c(c2)[C@]2(C(=O)N3)[C@H](c3ccccc3OCCO)N3[C@H](c4ccccc4)[C@H](c4ccccc4)OC(=O)[C@H]3[C@@H]2C(=O)O)cc1
2.06

----------
Assay: basal HepG2 mitochondrial membrane potential changes, profiling panel, cell-based, JC-1 fluorescence, 24 h, 100 nL compound (AID 1167); further: test concentration not given here
Settings: higher = more signal
Param threshold (-2) applies to z-score; output TRUE when value >= threshold, FALSE when value < threshold.

[[record]]
compound = "O=C1O[C@@H](c2ccccc2)[C@@H](c2ccccc2)N2[C@@H](c3ccc(OCCO)cc3)[C@]3(C(=O)Nc4ccccc43)[C@@H](C(=O)NC[C@H](O)c3ccccc3)[C@H]12"
assigned_label = "TRUE"

[[record]]
compound = "CC1CC/C=C\\[C@H]2OC34C=CCN(Cn5nnc6ccccc65)C(=O)[C@H]3N(C(CO)C(C)C)C(=O)[C@@H]4C2C(=O)O1 (stereo partly specified)"
assigned_label = "TRUE"

[[record]]
compound = "C=CCOC(=O)[C@@H]1[C@H]2C(=O)O[C@H](c3ccccc3)[C@H](c3ccccc3)N2[C@H](c2ccc(OCCOC(=O)[C@@H]3C[C@@H]4C(=O)N[C@@H](Cc5ccccc5)C(=O)N4[C@@H]3c3ccc(O)cc3)cc2)[C@@]12C(=O)Nc1ccc(I)cc12"
assigned_label = "TRUE"

[[record]]
compound = "COCCOC(=O)N1C(=O)[C@@]2(c3cc(C#CC4=CCCCC4)ccc31)[C@H](C(=O)Nc1nc3ccccc3s1)[C@H]1C(=O)O[C@H](c3ccccc3)[C@H](c3ccccc3)N1[C@@H]2c1ccccc1OCCO"
assigned_label = "FALSE"

[[record]]
compound = "CCCCCC1=C2CNC(CCC)(C(=O)OC)C=C2C(C)C1=O (stereo unspecified)"
assigned_label = "TRUE"


Can O=C1NC(=O)C2C1C=CC(C(O)c1cccc3ccccc13)N2Nc1ccccn1 (stereo unspecified) be said to have z-score at or above -2?
TRUE
